Sourced from ChEMBL document CHEMBL6092147

assay.system: Replicase polyprotein 1ab (Severe acute respiratory syndrome coronavirus 2, UniProt P0DTD1)
assay: Inhibition of SARS-CoV2 PLpro extracted from Escherichia coli using Z-RLRGG-AMC as substrate incubated for 30 mins by fluorescence based analysis
observation.type: IC50 (µM)
Supply the numeric figure in µM, leaving out any unit text.

Consider the molecule Cc1ccc(NCC2CCNC2)cc1C(=O)N[C@H](C)c1cccc2ccccc12 (mixture of isomers) and give its measured IC50.
1.5

// query IC50 value for entry Cc1ccc(NC(=O)C2CN(C)C2)cc1C(=O)N[C@H](C)c1cccc2ccccc12
1.55

Query: IC50; subject: Cc1ccc(NC(=O)N2CCN(C)CC2)cc1C(=O)N[C@H](C)c1cccc2ccccc12
1.6

Sample Cc1ccc(Nc2ccncc2)cc1C(=O)N[C@H](C)c1cccc2ccccc12 — what was its IC50?
1.7

Returns the measured IC50 for the input molecule. Input: Cc1ccc(NC(=O)N2CCCN(C)CC2)cc1C(=O)N[C@H](C)c1cccc2ccccc12
1.5

Please give the measured IC50 for this molecule: Cc1ccc(NC(=O)[C@@H](N)CN)cc1C(=O)N[C@H](C)c1cccc2ccccc12
1.6

Which IC50 value belongs to Cc1ccc(NC(=O)C2CN(C)CCN2)cc1C(=O)N[C@H](C)c1cccc2ccccc12 (mixture of isomers) ?
1.7

Which IC50 value belongs to Cc1ccc(NC(=O)[C@@H](N)CCCCN)cc1C(=O)N[C@H](C)c1cccc2ccccc12 ?
1.7
